Entries and their pIC50 values follow.
targetEntity: human JAK2 kinase domain (JH1) (Homo sapiens, UniProt O60674)
Construct: recombinantly generated catalytic kinase (also known as JH1) domain of human JAK1, JAK2, JAK3 and TYK2
Sequence (O60674 849-1124 limits assumed): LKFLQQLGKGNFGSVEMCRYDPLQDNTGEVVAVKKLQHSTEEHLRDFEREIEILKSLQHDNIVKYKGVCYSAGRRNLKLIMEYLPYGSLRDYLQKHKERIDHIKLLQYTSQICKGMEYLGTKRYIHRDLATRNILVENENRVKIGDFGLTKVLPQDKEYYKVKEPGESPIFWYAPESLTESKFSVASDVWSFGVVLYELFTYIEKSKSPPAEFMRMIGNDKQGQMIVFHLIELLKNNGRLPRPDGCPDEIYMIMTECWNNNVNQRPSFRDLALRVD
methodSummary: JH1 biochemical assay for JAK2 (ADP-Glo kinase assay, recombinant JH1 catalytic domain, JAK3-974 peptide, 15 μM ATP)
conditionSummary: JH1 kinase domain, ADP-Glo
pIC50: −log10 of the molar value. Where a name gives a salt, the structure may show the parent alone.
endpointName: pIC50

[
  {
    "molecule": "COc1cccc(-c2cn3nccc3c(N3C[C@@H](C)[C@@](C#N)(C4CC4)C3=O)n2)n1 [Example 193]",
    "targetEntity": "human JAK2 kinase domain (JH1) (Homo sapiens, UniProt O60674)",
    "endpointName": "pIC50",
    "reported": "< 5.00"
  },
  {
    "molecule": "C[C@@H]1CN(c2ccnn3cc(-c4cnn([C@H]5CC5(F)F)c4)cc23)C(=O)[C@]1(C#N)C1CC1 (single isomer, unassigned) [Example 156]",
    "targetEntity": "human JAK2 kinase domain (JH1) (Homo sapiens, UniProt O60674)",
    "endpointName": "pIC50",
    "reported": "6.00 to 7.00"
  },
  {
    "molecule": "CC(C)n1cc(-c2cc3c(N4C[C@@H](C)[C@@](C#N)(C5CC5)C4=O)ccnn3c2)cn1 [Example 167]",
    "targetEntity": "human JAK2 kinase domain (JH1) (Homo sapiens, UniProt O60674)",
    "endpointName": "pIC50",
    "reported": "> 7.00"
  },
  {
    "molecule": "Cn1cc(-c2cc3c(N4CC[C@@](C(F)F)(C5CC5)C4=O)ccnn3c2)cn1 [Example 15]",
    "targetEntity": "human JAK2 kinase domain (JH1) (Homo sapiens, UniProt O60674)",
    "endpointName": "pIC50",
    "reported": "5.30 to 6.00"
  },
  {
    "molecule": "C[C@@H]1CN(c2ccnn3cc(-c4cnc5cc(C#N)ccn45)cc23)C(=O)[C@]1(C#N)C1CC1 [Example 103, trifluoroacetate]",
    "targetEntity": "human JAK2 kinase domain (JH1) (Homo sapiens, UniProt O60674)",
    "endpointName": "pIC50",
    "reported": "< 5.00"
  },
  {
    "molecule": "C[C@@H]1CN(c2nc(-c3cnn(C)c3)cn3nccc23)C(=O)[C@]1(C#N)C1CC1 [Example 184]",
    "targetEntity": "human JAK2 kinase domain (JH1) (Homo sapiens, UniProt O60674)",
    "endpointName": "pIC50",
    "reported": "> 7.00"
  },
  {
    "molecule": "COc1cc(-c2cc3c(N4C[C@@H](C)[C@@](C#N)(C5CC5)C4=O)ccnn3c2)ccn1 [Example 65]",
    "targetEntity": "human JAK2 kinase domain (JH1) (Homo sapiens, UniProt O60674)",
    "endpointName": "pIC50",
    "reported": "6.00 to 7.00"
  }
]
